Assay: Tmax in human at 0.025 to 2 mg/kg dosed as single and multiple doses
Type: ADME, organism-based
Details: in vivo
OBSERVABLE: Tmax

Challenge: Need Tmax of CCCCCCCCCCCCCCCCOCCCOP(=O)(O)CO[C@H](CO)Cn1ccc(N)nc1=O , thanks.
Response given: 7 to 15 h

====

System: Ebolavirus
Assay: Antiviral activity against Ebolavirus assessed as reduction in viral replication
Assay type: functional
Settings: Orthoebolavirus
Recorded measurements of EC50, one per entry

> print(dat)
                                   molecule      measurement
1  N#C[C@@]1(c2ccc3c(N)ncnn23)O[C@H](CO)[C@@H](O)[C@H]1O [GS-441524]  770 to 20000 nM

# evaluate next
Challenge: Need EC50 of CCC(CC)OC(=O)[C@H](C)N[P@@](=O)(OC[C@H]1O[C@@](C#N)(c2ccc3c(N)ncnn23)[C@H](O)[C@@H]1O)Oc1ccccc1 , thanks.
Response given: 60 to 140 nM

====

Assay: Half life in rhesus monkey at 10 mg/kg, iv
Format: ADME, organism-based, Macaca mulatta
Conditions: in vivo
OBSERVABLE: half-life (min)
The response must be a number in min with no trailing unit.

Challenge: Need half-life of CCC(CC)OC(=O)[C@H](C)N[P@@](=O)(OC[C@H]1O[C@@](C#N)(c2ccc3c(N)ncnn23)[C@H](O)[C@@H]1O)Oc1ccccc1 , thanks.
Response given: 23.4

====

Test: Half life in human at 1.5 mg/kg dosed as single and multiple doses
Type: ADME, organism-based
Conditions: in vivo
OBSERVABLE: half-life (h)
The response must be a number in h with no trailing unit.

Challenge: Need half-life of CCCCCCCCCCCCCCCCOCCCOP(=O)(O)CO[C@H](CO)Cn1ccc(N)nc1=O , thanks.
Response given: 32.7

====

Assay: Half life in human at 0.025 mg/kg dosed as single and multiple doses
Type: ADME, organism-based
Details: in vivo
OBSERVABLE: half-life (h)
The response must be a number in h with no trailing unit.

Challenge: Need half-life of CCCCCCCCCCCCCCCCOCCCOP(=O)(O)CO[C@H](CO)Cn1ccc(N)nc1=O , thanks.
Response given: 6.15
